target: Plasmodium falciparum protein kinase 6 (PK6, PF3D7_1337100)
method description: PfPK6 kinase inhibitors, biochemical, TCAMS library (AID 1159586)
test conditions: recombinant PfPK6, Kinase-Glo ATP depletion luminescence
Measured potencies and affinities stand elsewhere. The source made the active and inactive calls. How the calls were made is not given here.
readout label: outcome

Check out these entries, answers already filled in.
> print(dat)
                                   molecule                                    target  reported.value
1    O=C(Nc1ccc2c(c1)CCNCC2)Nc1ccc2ccccc2c1  Plasmodium falciparum protein kinase 6 (PK6, PF3D7_1337100)        inactive
2  O=C(/C=C/c1ccc(Cl)c(Cl)c1)NCCCCCCN1CCCN(C(=O)Nc2cccc(Cl)c2)CC1  Plasmodium falciparum protein kinase 6 (PK6, PF3D7_1337100)        inactive
3  CN1CCCN(Cc2ccc(-c3cccc(NC(=O)c4cccc(C#N)c4)c3)cc2)CC1  Plasmodium falciparum protein kinase 6 (PK6, PF3D7_1337100)        inactive
4  COc1ccc(Cl)cc1N1CCN(CCCNC(=O)c2ccc(-c3nc4cc(Cl)c(Cl)cc4[nH]3)c(C)c2)CC1  Plasmodium falciparum protein kinase 6 (PK6, PF3D7_1337100)        inactive

Please give outcome, item by item, for the list that follows.
1. Fc1ccc2nc(Nc3nc(-c4ccccn4)cs3)sc2c1
2. Cc1cc(Br)cnc1CCCCN=C1NC(=O)CN1C
3. COc1ccc(CCN2CCC(NCc3cccc(N(C)C)c3)CC2)cc1
4. c1ccc2c(NCCCCCCCCNc3ccnc4ccccc34)ccnc2c1

[reply]
inactive
inactive
inactive
inactive

Please give outcome, item by item, for the list that follows.
1. CC(CN1CCN(C)CC1)C(=O)Nc1ccc(-c2ccc(-c3nc4ccccc4[nH]3)cc2)cc1 (stereo not given)
2. CCNc1cc(C(=O)N[C@@H](Cc2ccccc2)[C@H](O)CNC(C)CC(C)C)c(F)c(N2CCCCS2(=O)=O)c1 (stereo not given in full)
3. O=C(N[C@@H](Cc1ccccc1)[C@H](O)CNCCC(F)(F)F)c1cccc(OCC2CC2)c1
4. COc1ccc(C(=O)Nc2nonc2-c2ccc(OC)c(OC)c2)cc1Cl
5. CCOc1cccc(C(=O)Nc2cccc(CN3CCCN(Cc4ccc(O)cc4)CC3)c2)c1
6. COc1cccc(-c2ccc3c(-c4ccc(F)cc4)cnc(N)c3c2)c1
7. CN(c1ccccc1C(=O)Nc1ccccc1Oc1ccccc1)S(=O)(=O)c1ccccc1

[reply]
["inactive", "inactive", "inactive", "inactive", "inactive", "inactive", "inactive"]

Please give outcome, item by item, for the list that follows.
1. S=C(Nc1cccc(Cl)c1)NC1CCN(c2ccnc3cc(Cl)ccc23)C1 (stereo not given)
2. CCCCc1cc(NCc2ccncc2)nc(Nc2ccc(OC)cc2)n1
3. CN1CCN(c2ncnc3ccc(NC(=O)Nc4ccc(Cl)c(Cl)c4)cc23)CC1

[reply]
["inactive", "inactive", "inactive"]

Please give outcome, item by item, for the list that follows.
1. CCOC(=O)c1ccc(NC(=O)c2ccccc2C(=O)O)cc1
2. CCC(=O)c1c(C)n(-c2ncnc3c2nc(C)n3-c2ccc(C)cc2C)c2ccccc12
3. Cc1cc(CNCCCCCCCNCc2ccc(-c3ccccc3)cc2)ccc1O
4. Cc1cccc2[nH]c(-c3cccc(-c4cccc(NC(=O)Nc5ccc(F)c(F)c5F)c4)c3)nc12
5. CC(C)c1ccc(CN2CCC(CNC(=O)c3cc(-c4cccc(F)c4)cs3)C2)cc1 (stereo not given)
6. COc1cc([N+](=O)[O-])ccc1NC(=O)Nc1ccc(OC(F)(F)F)cc1
7. COc1ccc(CCN(C)CCCOc2ccc(NC(=O)COc3cccc4sc5ccccc5c(=O)c34)cc2)cc1OC

[reply]
["inactive", "inactive", "inactive", "inactive", "inactive", "inactive", "inactive"]

This collection of values is drawn from PubChem BioAssay.
